As shown below, each of these compounds has a reported helicity value.
- ASSAY DETAILS: circular dichroism
- PROTOCOL CONDITIONS: phosphate buffer (PB); pH 7.2; 20 °C; 10-50 uM
Positions of bridges follow the written chain, without caps; N, C: chain ends. Non-standard residues stand in square brackets, D forms with d. Residues, ends and D or L forms follow the SMILES beside them. S5 = C=CCCC[C@](C)(N)C(=O)O
// units = %; emit number, no label

Bench note: what helicity did CC(=O)N[C@H](C(=O)N[C@@H](CO)C(=O)N[C@@H](Cc1ccccc1)C(=O)N[C@@H](C)C(=O)N[C@@H](CCC(=O)O)C(=O)N[C@@H](Cc1ccc(O)cc1)C(=O)N[C@@H](Cc1c[nH]c2ccccc12)C(=O)N[C@@H](C)C(=O)N[C@@H](CC(C)C)C(=O)N[C@@H](CC(C)C)C(=O)N[C@@H](CO)C(=O)NCCOCCOCCOCCC(=O)N[C@@H](CC(C)C)C(=O)N[C@@H](C)C(=O)N1C[C@H](O)C[C@H]1C(=O)N[C@@H](Cc1ccc(O)cc1)C(=O)N[C@@H](CCC(C)C)C(=O)N1CCC[C@H]1C(N)=O)[C@@H](C)O [PMI-HIF1-3] show?
17

Please give the measured helicity for this compound: CC(=O)N[C@H](C(=O)N[C@@H](CO)C(=O)N[C@@H](Cc1ccccc1)C(=O)N[C@@H](C)C(=O)N[C@@H](CCC(=O)O)C(=O)N[C@@H](Cc1ccc(O)cc1)C(=O)N[C@@H](Cc1c[nH]c2ccccc12)C(=O)N[C@@H](C)C(=O)N[C@@H](CC(C)C)C(=O)N[C@@H](CC(C)C)C(=O)N[C@@H](CO)C(=O)NCCOCC(=O)N[C@@H](CC(C)C)C(=O)N[C@@H](C)C(=O)N1C[C@H](O)C[C@H]1C(=O)N[C@@H](Cc1ccc(O)cc1)C(=O)N[C@@H](CCC(C)C)C(=O)N1CCC[C@H]1C(N)=O)[C@@H](C)O [PMI-HIF1-1]
17

For CC(=O)N[C@H](C(=O)N[C@@H](CO)C(=O)N[C@@H](Cc1ccccc1)C(=O)N[C@@]1(C)CCCC=CCCC[C@@](C)(C(=O)N[C@@H](CC(C)C)C(=O)N[C@@H](CC(C)C)C(=O)N[C@@H](CO)C(N)=O)NC(=O)[C@H](Cc2c[nH]c3ccccc23)NC(=O)[C@H](Cc2ccc(O)cc2)NC(=O)[C@H](CCC(=O)O)NC1=O)[C@@H](C)O [SPMI1] (Ac-TSF[S5]EYW[S5]LLS-NH2; staple 4-8) , what is its reported helicity?
4

====

- ASSAY DETAILS: circular dichroism
- PROTOCOL CONDITIONS: phosphate buffer (PB); pH 7.2; 20 °C; 10-50 uM
QUANTITY MEASURED: helicity (%)
Value expressed in %; do not type the unit.

helicity lookup needed for CC(=O)N[C@H](C(=O)N[C@@H](CO)C(=O)N[C@@H](Cc1ccccc1)C(=O)N[C@@H](C)C(=O)N[C@@H](CCC(=O)O)C(=O)N[C@@H](Cc1ccc(O)cc1)C(=O)N[C@@H](Cc1c[nH]c2ccccc12)C(=O)N[C@@H](C)C(=O)N[C@@H](CC(C)C)C(=O)N[C@@H](CC(C)C)C(=O)N[C@@H](CO)C(=O)NCCOCCOCCC(=O)N[C@@H](CC(C)C)C(=O)N[C@@H](C)C(=O)N1C[C@H](O)C[C@H]1C(=O)N[C@@H](Cc1ccc(O)cc1)C(=O)N[C@@H](CCC(C)C)C(=O)N1CCC[C@H]1C(N)=O)[C@@H](C)O , thanks.
17
